Molecular target: 5-HT1A type serotonin receptor (human recombinant, HEK-293 cells) (Homo sapiens, UniProt P08908)
Construct: expressed in transfected cells; host or cells: HEK-293 cells
Sequence (P08908 1-422): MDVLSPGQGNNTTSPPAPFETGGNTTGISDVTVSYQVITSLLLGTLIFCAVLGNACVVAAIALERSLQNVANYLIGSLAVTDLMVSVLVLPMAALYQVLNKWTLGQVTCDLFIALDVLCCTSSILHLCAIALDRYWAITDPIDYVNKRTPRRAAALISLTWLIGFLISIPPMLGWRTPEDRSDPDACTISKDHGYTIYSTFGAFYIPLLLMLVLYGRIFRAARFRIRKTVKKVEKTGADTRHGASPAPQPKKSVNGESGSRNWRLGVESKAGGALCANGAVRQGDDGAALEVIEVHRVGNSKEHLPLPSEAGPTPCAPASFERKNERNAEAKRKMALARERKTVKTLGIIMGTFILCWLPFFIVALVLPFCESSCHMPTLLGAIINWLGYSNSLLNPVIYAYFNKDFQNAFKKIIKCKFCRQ
Test: Competitive binding to 5-HT1A receptor, [3H]-8-OH-DPAT radioligand
Conditions: 100 nM compound; [3H]-8-OH-DPAT 0.5 nM
Attribute measured: 5HT1A receptor Binding % at 100 nM

> print(dat)
                                   molecule                  attribute.measured   value
1  CCOc1ccccc1N1CCN(Cc2cc3c(cn2)[nH]c2ccccc23)CC1 [Compound B-97]  5HT1A receptor Binding % at 100 nM  75.08%
2  O=c1[nH]c(CN2CCN(c3cccc(O)c3)CC2)nc2sc3c(c12)CCCC3 [Compound B-95]  5HT1A receptor Binding % at 100 nM  active
3  CCOc1ccccc1N1CCN(Cc2nc3sc4c(c3c(=O)[nH]2)CCCC4)CC1 [Compound B-94]  5HT1A receptor Binding % at 100 nM  44.56%
4  O=c1[nH]c(CN2CCC(c3ccccc3)CC2)nc2sc3c(c12)CCCC3 [Compound B-93]  5HT1A receptor Binding % at 100 nM  active
5  COc1ccccc1N1CCN(Cc2cc3c(cn2)[nH]c2ccccc23)CC1 [Compound B-99]  5HT1A receptor Binding % at 100 nM  active
6  Oc1cccc(N2CCN(Cc3cc4c(cn3)[nH]c3ccccc34)CC2)c1 [Compound B-96]  5HT1A receptor Binding % at 100 nM  active

Entry source: patent US8168639B2
